B1: Caulobacter ParB omega fusion; a variant is named by its letters at X, in order, B8GW30 (parent)
chain: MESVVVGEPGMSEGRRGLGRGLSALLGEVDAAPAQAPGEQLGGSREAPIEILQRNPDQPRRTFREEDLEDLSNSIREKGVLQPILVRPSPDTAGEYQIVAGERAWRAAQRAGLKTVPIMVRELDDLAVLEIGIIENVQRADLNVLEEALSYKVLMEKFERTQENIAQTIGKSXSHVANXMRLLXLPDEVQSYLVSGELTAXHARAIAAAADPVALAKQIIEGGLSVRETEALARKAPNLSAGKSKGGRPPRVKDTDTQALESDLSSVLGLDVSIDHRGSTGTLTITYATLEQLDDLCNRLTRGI

# Variants of: B1
# method: one-hybrid fitness for binding parS DNA (scaled: cognate 1, non-cognate 0); higher = stronger binding
# recorded_conditions: with parS DNA site
Over roughly 81,000 sequences, “one-hybrid fitness for binding parS DNA” has its median near -0.17; the highest 2% begin near 0.51. Many of the other results were omitted from the sample, so the highest values are more common in it than they were.
Listed variants paired with reported one-hybrid fitness for binding parS DNA

Answered examples (5):
Exercise: Note down one-hybrid fitness for binding parS DNA recorded for `RWGC`
Solution: 0.61

Exercise: Note down one-hybrid fitness for binding parS DNA recorded for `KERF`
Solution: ≤ 0.2

Exercise: Note down one-hybrid fitness for binding parS DNA recorded for `RWHY`
Solution: 0.275

Exercise: Note down one-hybrid fitness for binding parS DNA recorded for `CLLW`
Solution: ≤ 0.2

Exercise: Note down one-hybrid fitness for binding parS DNA recorded for `RWIN`
Solution: ≤ 0.2

More entries:
Exercise: Note down one-hybrid fitness for binding parS DNA recorded for `VEHM`
Solution: ≤ 0.2

Exercise: Note down one-hybrid fitness for binding parS DNA recorded for `RWHC`
Solution: 0.733

Exercise: Note down one-hybrid fitness for binding parS DNA recorded for `QTSF`
Solution: ≤ 0.2

Exercise: Note down one-hybrid fitness for binding parS DNA recorded for `SQKG`
Solution: ≤ 0.2
